test: FRG1 promoter luciferase signal modulators, primary screen, FRG1 inhibition for FSHD, cell-based, C2C12 myotubes, firefly/Renilla luciferase, luminescence (AID 1084); details: higher = more signal, called active from +8 up or from −8 down
PROPERTY MEASURED: z-score
// return a plain number; no unit text

Consider the following illustrative entries.
1) COCCOC(=O)N1C(=O)[C@@]2(c3cc(C#CC4=CCCCC4)ccc31)[C@H](c1ccccc1OCCO)N1[C@H](c3ccccc3)[C@H](c3ccccc3)OC(=O)[C@H]1[C@@H]2C(=O)Nc1nc2ccccc2s1: 1.41
2) COCCOC(=O)N1C(=O)[C@@]2(c3cc(C#Cc4ccc(OC)cc4)ccc31)[C@H](C(=O)Nc1nc3ccccc3s1)[C@H]1C(=O)O[C@H](c3ccccc3)[C@H](c3ccccc3)N1[C@@H]2c1ccc(OCCO)cc1: 4.61
3) [N-]=[N+]=NCc1ccccc1C[C@]1(C(N)=O)N=C(c2ccc(OCCCO)cc2)O[C@H]1c1ccccc1: -3.9
4) COc1cc2c(cc1OC)CN(C(=O)[C@@H]1[C@H]3C(=O)O[C@H](c4ccccc4)[C@H](c4ccccc4)N3[C@H](c3ccc(OCCO)cc3)[C@@]13C(=O)Nc1ccc(C#CC4(O)CCCCCC4)cc13)CC2: -0.921

Per the records, this compound ( COc1ccc([Si](C)(C)[C@@H]2[C@@H](CCn3cc([C@H](O)c4ccccc4)nn3)O[C@]3(C(=O)N(Cc4ccc(N5CCC5=O)cc4)c4ccccc43)[C@H]2C)cc1 ) has z-score equal to -0.96

Entry [N-]=[N+]=Nc1ccccc1[C@H]1OC(c2ccc(OCCCO)cc2)=N[C@@]1(Cc1ccccc1)C(=O)N1CCCCC1 — recorded z-score = -1.02

---

molecular target: Follistatin-related protein 3 (Homo sapiens); experiment: FSTL3 binders on small-molecule microarrays, primary screen, biochemical, small-molecule microarray, 635 nm fluorescence (AID 1105); details: FSTL3 binding, higher = more signal;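 also: score merges emission near 667 nm and signal to noise per printed spot across three slides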
PROPERTY MEASURED: composite z-score
Number, no unit, nothing else.

Use the examples below as a reference point.
1. CCCCC=C[C@@H](NC(=O)c1ccc(-c2ccccc2)cc1)c1ccccc1: -0.203
2. O=C1O[C@@H](c2ccccc2)[C@@H](c2ccccc2)N2[C@@H](c3ccc(O)cc3)[C@]3(C(=O)Nc4ccc(C#CC5(O)CCCCCC5)cc43)[C@@H](C(=O)NC[C@H](O)c3ccccc3)[C@H]12: -0.442
3. NC(=O)N1C(=O)C2C(C1=O)C1C=C(CCCO)C2C(c2cccs2)N1Cc1cccc(OC(F)(F)F)c1 (centres undefined): 0.211

Consider the record given below.
Short answer for CN(C)C(=O)[C@@]1(Cc2ccccc2CN=[N+]=[N-])N=C(c2ccc(OCCCO)cc2)O[C@H]1c1ccccc1CN=[N+]=[N-] : composite z-score was -0.0464

---

test: CREB reporter modulators without forskolin, primary screen, cell-based, PC12, CRE-LacZ reporter, unstimulated (AID 1145); conditions: no forskolin, luminescence, 4.5 h, higher = more signal, called active from +8 up or from −8 down
PROPERTY MEASURED: z-score
Just the number.

As a guide, the following entries are already answered.
1) COCCCNC(=O)[C@@]1(Cc2ccccc2N=[N+]=[N-])COC(c2ccc(OCCCO)cc2)=N1: -0.641
2) CC(C)(C)N1CC=CC23O[C@@H]4C=CCOC(=O)[C@@H]4[C@H]2C(=O)N(CCCCCCO)[C@@H]3C1=O (stereo partly specified): 0.475
3) C=CCOC(=O)[C@H]1[C@@H]2C(=O)O[C@@H](c3ccccc3)[C@@H](c3ccccc3)N2[C@@H](c2ccc(OCCOC(=O)[C@H]3C[C@H]4C(=O)N[C@@H](CCCCNC(C)=O)C(=O)N4[C@H]3c3ccc(O)cc3)cc2)[C@]12C(=O)Nc1ccccc12: 0.147
4) O=C1OCC=C[C@H]2OC34C=CCN(Cn5nnc6ccccc65)C(=O)[C@H]3N(CCCO)C(=O)[C@@H]4[C@@H]12 (stereo partly specified): -0.887
5) CC1=C[C@@]2(CO)C(=O)[C@]3(CO3)[C@@H]1[C@H]1[C@]2(C)C=C(CO)C(=O)[C@]12CO2: 0.314

Please find the next compound below.
Lab note: O=C1O[C@@H](c2ccccc2)[C@@H](c2ccccc2)N2[C@@H](c3ccccc3OCCO)[C@]3(C(=O)Nc4ccc(C#CCCO)cc43)[C@@H](C(=O)N3CCCCCCC3)[C@H]12 gave z-score of 0.245
